pIC50 values for the compounds below.
molecular target: purified recombinant human JAK2 protein (Homo sapiens, UniProt O60674); test: Measurement of JAK2 kinase-inhibitory activity; details: FL-Peptide 22 1 μM, ATP 10 μM, 25° C., 80 minutes
Sequence (O60674 whole entry): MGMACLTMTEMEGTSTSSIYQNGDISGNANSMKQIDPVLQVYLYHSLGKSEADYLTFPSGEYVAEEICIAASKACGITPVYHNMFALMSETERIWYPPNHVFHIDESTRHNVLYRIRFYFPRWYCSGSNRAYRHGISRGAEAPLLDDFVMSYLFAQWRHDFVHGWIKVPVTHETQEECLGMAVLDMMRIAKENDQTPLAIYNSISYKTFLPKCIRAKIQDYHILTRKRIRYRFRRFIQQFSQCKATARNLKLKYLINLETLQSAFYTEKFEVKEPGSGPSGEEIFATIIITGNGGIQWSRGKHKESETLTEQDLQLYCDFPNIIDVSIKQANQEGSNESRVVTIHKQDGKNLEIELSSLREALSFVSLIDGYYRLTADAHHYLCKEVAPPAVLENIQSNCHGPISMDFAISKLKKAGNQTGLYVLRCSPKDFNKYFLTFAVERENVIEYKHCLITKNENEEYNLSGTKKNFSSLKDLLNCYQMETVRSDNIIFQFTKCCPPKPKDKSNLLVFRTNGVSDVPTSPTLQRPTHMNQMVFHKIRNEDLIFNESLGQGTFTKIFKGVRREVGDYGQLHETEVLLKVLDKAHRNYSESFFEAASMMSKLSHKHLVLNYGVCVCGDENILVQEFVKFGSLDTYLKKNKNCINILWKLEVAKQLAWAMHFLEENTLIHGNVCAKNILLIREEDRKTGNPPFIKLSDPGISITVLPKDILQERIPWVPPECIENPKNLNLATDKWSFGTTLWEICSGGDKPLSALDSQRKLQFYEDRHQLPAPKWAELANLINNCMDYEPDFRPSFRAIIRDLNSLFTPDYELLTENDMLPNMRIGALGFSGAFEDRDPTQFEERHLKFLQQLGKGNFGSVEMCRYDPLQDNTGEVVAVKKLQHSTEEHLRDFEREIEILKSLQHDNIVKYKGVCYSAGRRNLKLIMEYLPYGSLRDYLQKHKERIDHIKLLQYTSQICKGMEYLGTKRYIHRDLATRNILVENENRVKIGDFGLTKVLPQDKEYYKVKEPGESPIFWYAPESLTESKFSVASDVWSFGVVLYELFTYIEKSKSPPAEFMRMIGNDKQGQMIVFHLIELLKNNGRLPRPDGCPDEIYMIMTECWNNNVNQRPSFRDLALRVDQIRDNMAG
pIC50 here is simply -log10 of the concentration when that concentration is written in mol/L.

Recorded pIC50, per entry:
C=CC(=O)NC1CCC=C(c2ccnc3[nH]cc(C4=CCCC4)c23)C1 (stereo not shown) [Compound 33] :: 5.85
C=CC(=O)NC1CCC=C(c2ccnc3[nH]cc(-c4ccc(C=O)o4)c23)C1 (stereo not shown) [Compound 9] :: 6.37

-- ask May I ask what pIC50 has been recorded for C=CC(=O)NC1CCC=C(c2ccnc3[nH]cc(-c4cncs4)c23)C1 (stereo not shown) [Compound 13] ?
-- reply 5.70

-- ask Then this compound: Cc1nc(-c2c[nH]c3ncc(-c4ccccc4)cc23)cs1 [Comparative Example 3, reference compound]
-- reply 5.80

###

biological target: purified recombinant human JAK2 protein (Homo sapiens); assay: Measurement of JAK2 kinase-inhibitory activity; settings: FL-Peptide 22 1 μM, ATP 10 μM, 25° C., 80 minutes
Metric: pIC50
Just so you know, pIC50 here is -log10 of the concentration in molar units; reply with that number alone.

-- ask Look up pIC50: C=CC(=O)NC1CCC=C(c2ccnc3[nH]cc(C4=CCCCC4)c23)C1 (centres unmarked)
-- reply 5.85

-- ask And C=CC(=O)NC1CCC=C(c2ccnc3[nH]cc(-c4ccco4)c23)C1 (centres unmarked) ?
-- reply 6.30

-- ask What about C=CC(=O)NC1CCC=C(c2ccnc3[nH]cc(-c4ccc(F)nc4)c23)C1 (centres unmarked) ?
-- reply 5.62

-- ask Now try C=CC(=O)NC1CCC=C(c2ccnc3[nH]cc(-c4ccccc4)c23)C1 (centres unmarked) .
-- reply 6.35

-- ask Also C=CC(=O)NC1CCC=C(c2ccnc3[nH]cc(-c4cccnc4OC)c23)C1 (centres unmarked) ?
-- reply 6.22

###

target: purified recombinant human JAK1 protein (Homo sapiens, UniProt P23458); assay: Measurement of JAK1 kinase-inhibitory activity; conditions: substrate peptide 1 μM, ATP 75 M (so in the source), 25° C., 120 minutes
Sequence (P23458 whole entry): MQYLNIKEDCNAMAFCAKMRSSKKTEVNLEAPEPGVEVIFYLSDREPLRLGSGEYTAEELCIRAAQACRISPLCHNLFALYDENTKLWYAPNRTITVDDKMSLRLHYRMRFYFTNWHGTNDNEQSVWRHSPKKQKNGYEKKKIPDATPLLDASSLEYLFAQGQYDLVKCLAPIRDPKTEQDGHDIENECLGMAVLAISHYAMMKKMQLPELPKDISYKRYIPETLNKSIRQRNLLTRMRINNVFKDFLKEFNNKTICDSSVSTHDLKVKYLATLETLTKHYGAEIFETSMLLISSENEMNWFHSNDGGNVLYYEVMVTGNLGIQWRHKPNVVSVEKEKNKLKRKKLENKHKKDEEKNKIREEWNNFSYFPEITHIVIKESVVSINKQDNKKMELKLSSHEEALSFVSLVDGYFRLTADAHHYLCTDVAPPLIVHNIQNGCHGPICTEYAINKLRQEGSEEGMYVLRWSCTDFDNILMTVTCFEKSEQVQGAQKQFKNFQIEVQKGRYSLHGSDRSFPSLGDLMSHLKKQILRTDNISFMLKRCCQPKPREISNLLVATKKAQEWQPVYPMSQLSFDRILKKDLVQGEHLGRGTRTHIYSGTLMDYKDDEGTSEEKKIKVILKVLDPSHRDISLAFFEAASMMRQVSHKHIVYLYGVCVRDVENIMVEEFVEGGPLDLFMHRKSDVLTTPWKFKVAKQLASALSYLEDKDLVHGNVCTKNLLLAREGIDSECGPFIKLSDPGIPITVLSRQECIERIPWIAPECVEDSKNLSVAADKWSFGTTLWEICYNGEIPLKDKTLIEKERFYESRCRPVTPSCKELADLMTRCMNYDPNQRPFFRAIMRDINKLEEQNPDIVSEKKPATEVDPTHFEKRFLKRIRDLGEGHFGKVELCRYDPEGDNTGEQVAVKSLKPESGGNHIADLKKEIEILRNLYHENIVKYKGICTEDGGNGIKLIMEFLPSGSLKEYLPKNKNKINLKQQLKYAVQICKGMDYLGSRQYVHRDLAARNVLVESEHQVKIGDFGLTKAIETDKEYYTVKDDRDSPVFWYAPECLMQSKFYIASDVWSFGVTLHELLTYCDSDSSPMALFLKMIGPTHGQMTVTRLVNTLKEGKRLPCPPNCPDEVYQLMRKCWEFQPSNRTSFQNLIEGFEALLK
Metric: IC50 (µM)
Just the number please, in µM, no unit attached.

C=CC(=O)N[C@H]1CCC=C(c2ccnc3[nH]cc(-c4ccno4)c23)C1 [Compound 59] :: 1.5
C=CC(=O)NC1CCC=C(c2ccnc3[nH]cc(-c4ccc(C=O)o4)c23)C1 (centres unmarked) [Compound 9] :: 2.4

-- ask Entry under review: C=CC(=O)NC1CCC=C(c2ccnc3[nH]cc(C4=CCOC4)c23)C1 (centres unmarked) [Compound 34] . Reported IC50?
-- reply 2.4

-- ask Moving on to the next molecule: C=CC(=O)NC1CCC=C(c2ccnc3[nH]cc(-c4cccnc4OC)c23)C1 (centres unmarked) [Compound 6]
-- reply 1.1

###

Overview of recorded pIC50 for various molecules
biological target: purified recombinant human JAK3 protein (Homo sapiens, UniProt P52333); assay: Measurement of JAK3 kinase-inhibitory activity; conditions: substrate peptide 1 μM, ATP 5 μM, 25° C., 80 minutes
Sequence (P52333 whole entry): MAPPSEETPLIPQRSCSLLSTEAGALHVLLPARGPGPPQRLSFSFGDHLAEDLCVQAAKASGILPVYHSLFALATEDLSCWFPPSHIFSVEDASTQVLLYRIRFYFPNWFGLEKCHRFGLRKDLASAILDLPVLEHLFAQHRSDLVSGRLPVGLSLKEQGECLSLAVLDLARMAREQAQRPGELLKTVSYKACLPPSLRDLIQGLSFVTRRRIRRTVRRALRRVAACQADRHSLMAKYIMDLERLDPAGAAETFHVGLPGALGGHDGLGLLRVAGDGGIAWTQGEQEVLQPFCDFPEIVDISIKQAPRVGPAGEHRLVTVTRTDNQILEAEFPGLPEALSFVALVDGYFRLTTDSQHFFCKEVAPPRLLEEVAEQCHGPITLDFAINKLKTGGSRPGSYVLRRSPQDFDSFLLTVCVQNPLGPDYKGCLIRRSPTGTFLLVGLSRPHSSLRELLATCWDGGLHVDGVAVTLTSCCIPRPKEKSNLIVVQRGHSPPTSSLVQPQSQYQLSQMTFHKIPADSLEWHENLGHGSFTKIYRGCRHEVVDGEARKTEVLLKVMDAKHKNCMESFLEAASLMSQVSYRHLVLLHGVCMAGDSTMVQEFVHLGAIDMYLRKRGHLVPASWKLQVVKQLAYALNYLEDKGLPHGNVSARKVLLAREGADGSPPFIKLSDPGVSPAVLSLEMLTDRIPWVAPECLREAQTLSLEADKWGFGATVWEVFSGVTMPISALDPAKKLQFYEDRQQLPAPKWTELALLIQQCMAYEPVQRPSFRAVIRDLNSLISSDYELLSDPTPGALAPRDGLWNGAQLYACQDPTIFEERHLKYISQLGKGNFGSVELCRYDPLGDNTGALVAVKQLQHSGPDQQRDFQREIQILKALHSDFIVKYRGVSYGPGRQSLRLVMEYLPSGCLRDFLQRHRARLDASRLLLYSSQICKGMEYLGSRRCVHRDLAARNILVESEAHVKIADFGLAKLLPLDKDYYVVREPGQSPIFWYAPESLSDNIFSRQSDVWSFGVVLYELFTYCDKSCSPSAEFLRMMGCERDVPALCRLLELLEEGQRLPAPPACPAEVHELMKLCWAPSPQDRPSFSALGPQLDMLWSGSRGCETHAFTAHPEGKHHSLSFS
Note: pIC50 values are expressed as the negative base-10 logarithm of concentration in M.

// worked examples, pIC50 included
C=CC(=O)NC1CCC=C(c2c(C#N)cnc3[nH]cc(-c4ccco4)c23)C1 (stereo not drawn) [Compound 45] :: 9.47
C=CC(=O)NC1CCC=C(c2ccnc3[nH]cc(C4=CCCC4)c23)C1 (stereo not drawn) [Compound 33] :: 9.22
C=CC(=O)NC1CCC=C(c2ccnc3[nH]cc(-c4cncc(CO)c4)c23)C1 (stereo not drawn) [Compound 11] :: 9.31

-- ask Look up pIC50: C=CC(=O)NC1CC=C(c2ccnc3[nH]cc(-c4nnco4)c23)C1 (stereo not drawn) [Compound 57]
-- reply 9.24

-- ask Entry Cc1nc(-c2c[nH]c3ncc(-c4ccccc4)cc23)cs1 [Comparative Example 3, reference compound] please
-- reply 6.34

-- ask # repeat for C=CC(=O)NC1CCC=C(c2ccnc3[nH]cc(-c4cccnc4F)c23)C1 (stereo not drawn) [Compound 38]
-- reply 9.17

###

target: purified recombinant human JAK1 protein (Homo sapiens, UniProt P23458); experiment: Measurement of JAK1 kinase-inhibitory activity; conditions: substrate peptide 1 μM, ATP 75 M (so in the source), 25° C., 120 minutes
Entries and their pIC50
pIC50 is a log-scale quantity: -log10 of the concentration expressed in molar.

C=CC(=O)NC1CCC=C(c2ccnc3[nH]cc(-c4cncc(CO)c4)c23)C1 (centres unmarked) [Compound 11] :: 5.02
C=CC(=O)NC1CCC=C(c2ccnc3[nH]cc(-c4ccc(F)nc4)c23)C1 (centres unmarked) [Compound 37] :: 5.36
C=CC(=O)NC1CCC=C(c2ccnc3[nH]cc(-c4ccco4)c23)C1 (centres unmarked) [Compound 12] :: 6.11

-- ask API: value(readout= pIC50, system= purified recombinant human JAK1 protein (Homo sapiens, UniProt P23458), query= C=CC(=O)NC1CC=C(c2ccnc3[nH]cc(-c4nnco4)c23)C1 (centres unmarked) [Compound 57] )
-- reply 5.46

-- ask Same question, C1=C(c2ccnc3[nH]ccc23)CCC1 [Comparative Example 2, reference compound] this time
-- reply 5.66

-- ask Moving on to C=CC(=O)NC1CCC=C(c2ccnc3[nH]cc(-c4nn(C)c(=O)o4)c23)C1 (centres unmarked) [Compound 53]
-- reply 5.41

-- ask Also check C=CC(=O)NC1CCC=C(c2ccnc3[nH]cc(C4=CCCCC4)c23)C1 (centres unmarked) [Compound 30]
-- reply 5.49

###

biological target: purified recombinant human JAK1 protein (Homo sapiens, UniProt P23458); experiment: Measurement of JAK1 kinase-inhibitory activity; details: substrate peptide 1 μM, ATP 75 M (so in the source), 25° C., 120 minutes
Property: IC50; scope: individual molecules
Provide the reading as a plain figure in µM.

Worked set:
C=CC(=O)NC1CCC=C(c2c(-c3cnn(C)c3)cnc3[nH]cc(-c4cccnc4)c23)C1 (centres unmarked) [Compound 19] :: 1
C=CC(=O)NC1CCC=C(c2ccnc3[nH]cc(-c4cnco4)c23)C1 (centres unmarked) [Compound 48] :: 2.4
C=CC(=O)N[C@H]1CCC=C(c2ccnc3[nH]cc(-c4nnco4)c23)C1 [Compound 55] :: 1
C=CC(=O)NC1CCC=C(c2ccnc3[nH]cc(-c4nnc(C)o4)c23)C1 (centres unmarked) [Compound 50] :: 3.8
C=CC(=O)NC1CCC=C(c2ccnc3[nH]cc(-c4cn[nH]c4)c23)C1 (centres unmarked) [Compound 3] :: 1.9

Next, consider the following molecule.
-- ask GET /values?readout=IC50&item= C=CC(=O)NC1CCC=C(c2ccnc3[nH]cc(C4=CCCC4)c23)C1 (centres unmarked) [Compound 33]
-- reply 3.6

###

target: purified recombinant human JAK1 protein (Homo sapiens, UniProt P23458); test: Measurement of JAK1 kinase-inhibitory activity; conditions: substrate peptide 1 μM, ATP 75 M (so in the source), 25° C., 120 minutes
The following compounds are shown together with reported pIC50 values.
Please express pIC50 as -log10 of the molar concentration.

C=CC(=O)NC1CCC=C(c2ccnc3[nH]cc(-c4nnc(CC)o4)c23)C1 (stereo not drawn) :: 5.52
C=CC(=O)NC1CCC=C(c2ccnc3[nH]cc(-c4cncs4)c23)C1 (stereo not drawn) :: 5.28

Note: attention shifts to another entry.
-- ask Record C=CC(=O)NC1CCC=C(c2c(OC)cnc3[nH]cc(-c4ccco4)c23)C1 (stereo not drawn) : what is its pIC50 with purified recombinant human JAK1 protein (Homo sapiens, UniProt P23458)?
-- reply 6.07

###

target: purified recombinant human JAK2 protein (Homo sapiens, UniProt O60674); assay: Measurement of JAK2 kinase-inhibitory activity; details: FL-Peptide 22 1 μM, ATP 10 μM, 25° C., 80 minutes
pIC50: −log10 of the molar value.
Rule: True for pIC50 not less than 6, False for anything less.

Worked examples follow.
C=CC(=O)NC1CCC=C(c2ccnc3[nH]cc(-c4nnc(CC)o4)c23)C1 (centres unmarked) [Compound 51] :: True
C=CC(=O)NC1CCC=C(c2ccnc3[nH]cc(-c4n[nH]c(=O)o4)c23)C1 (centres unmarked) [Compound 52] :: True
C=CC(=O)NC1CCC=C(c2ccnc3[nH]cc(-c4ccncc4)c23)C1 (centres unmarked) [Compound 2] :: False
C=CC(=O)NC1CCC=C(c2c(C#N)cnc3[nH]cc(-c4ccco4)c23)C1 (centres unmarked) [Compound 45] :: True
C=CC(=O)NC1CCC=C(c2ccnc3[nH]cc(-c4ccc(CO)o4)c23)C1 (centres unmarked) [Compound 10] :: True
C=CC(=O)NC1CCC=C(c2c(-c3cnn(C)c3)cnc3[nH]cc(-c4cccnc4)c23)C1 (centres unmarked) [Compound 19] :: True
C=CC(=O)NC1CCC=C(c2ccnc3[nH]cc(C4=CC(=O)CCC4)c23)C1 (centres unmarked) [Compound 32] :: False
C=CC(=O)NC1CCC=C(c2ccnc3[nH]cc(-c4cc(CO)co4)c23)C1 (centres unmarked) [Compound 14] :: True
C=CC(=O)NC1CCC=C(c2ccnc3[nH]cc(-c4ccc[n+]([O-])c4)c23)C1 (centres unmarked) [Compound 43] :: False
C=CC(=O)NC1CCC=C(c2ccnc3[nH]cc(C4=CCOCC4)c23)C1 (centres unmarked) [Compound 31] :: False

-- ask Confirm if pIC50 reported for the molecule C1=C(c2ccnc3[nH]ccc23)CCC1 [Comparative Example 2, reference compound] is 6 or above.
-- reply True

-- ask Next: C=CC(=O)N[C@H]1CCC=C(c2ccnc3[nH]cc(-c4ccno4)c23)C1 [Compound 59]
-- reply True
